system: HCC-2998 colon; assay: NCI tumour cell line growth inhibition, 48 h
For each entry below, report its TGI value.

stdin: Record O=C1CC2CCCCC2=C1O (stereo not drawn) : what is its TGI with HCC-2998 colon?
stdout: > 100 µM

stdin: Record O=C([O-])c1ccc2c(c1)-c1nc-2nc2[n-]c(nc3nc(nc4[n-]c(n1)c1ccc(C(=O)[O-])cc41)-c1cc(C(=O)[O-])ccc1-3)c1ccc(C(=O)[O-])cc21.[Fe+2] : what is its TGI with HCC-2998 colon?
stdout: > 50 µM

stdin: Record O=C1/C(=C/c2ccccc2)SC(=Nc2ccccc2)N1Nc1ccccc1 : what is its TGI with HCC-2998 colon?
stdout: > 100 µM

stdin: Record [Cl-].[Rh+3].c1ccc(-c2ccnc3c2ccc2c(-c4ccccc4)ccnc23)cc1.c1ccc(-c2ccnc3c2ccc2c(-c4ccccc4)ccnc23)cc1.c1ccc(-c2ccnc3c2ccc2c(-c4ccccc4)ccnc23)cc1 : what is its TGI with HCC-2998 colon?
stdout: 50 µM

stdin: Record C[n+]1c2ccccc2c(CNC(CCC(N)=O)C(=O)O)c2ccccc21 (stereo not drawn) : what is its TGI with HCC-2998 colon?
stdout: 11.2 µM

stdin: Record COc1ccc2nc(NCCCNCCO)c3sc4ccc(F)cc4c(=O)c3c2c1 : what is its TGI with HCC-2998 colon?
stdout: 3.61 µM

stdin: Record Cc1ccc(S(=O)(=O)Oc2ccc3c4c(c(=O)oc3c2)CCCCC4)cc1 : what is its TGI with HCC-2998 colon?
stdout: > 100 µM

stdin: Record COC(=O)C1=C(C(=O)OC)C23C=CC=CC24C(C(=O)OC)=C(C(=O)OC)C4C1C3 (stereo not drawn) : what is its TGI with HCC-2998 colon?
stdout: > 100 µM
